target: CgNce103 (Nakaseomyces glabratus); construct: gene NCE103; recombinant, obtained in-house; beta-CA; assay: stopped-flow CO2 hydrase assay; type: biochemical; conditions: read-out: KI (nM) ^a / CgNce103 (β-CA)
Listing of entries alongside the reported Ki.
Respond with the figure and its unit, in that order.

Take a look at these entries with their results.
>>> df
                                   compound   result
0  NS(=O)(=O)c1ccc(N2CC(=O)N(Cc3ccc(Cl)cc3)C2=O)cc1 [8f]  44.9 nM
1  NS(=O)(=O)c1ccc(N2CC(=O)N(Cc3ccc(OC(F)(F)F)cc3)C2=O)cc1 [8j]   5.9 nM

Need Ki, item NS(=O)(=O)c1ccc(N2CC(=O)N(Cc3ccccc3F)C2=O)cc1 [8l] 48.8 nM

Need Ki, item NS(=O)(=O)c1ccc(N2CC(=O)N(Cc3ccc(Cl)c(Cl)c3)C2=O)cc1 [8m] 67.9 nM

Need Ki, item Cc1ccc(CN2C(=O)CN(c3ccc(S(N)(=O)=O)cc3)C2=O)cc1 [8e] 18.3 nM

====

Listing of entries alongside the reported Ki.
target: CgNce103 (Nakaseomyces glabratus, UniProt Q6FTL6); construct: gene NCE103; recombinant, obtained in-house; beta-CA; assay: stopped-flow CO2 hydrase assay; format: biochemical; conditions: read-out: KI (nM) ^a / CgNce103 (β-CA)
# unit: nM | format: bare number

Need Ki, item `NS(=O)(=O)c1ccc(N2CC(=O)N(Cc3ccccc3)C2=O)cc1` 20.9

Need Ki, item `C=CCN1C(=O)CN(c2ccc(S(N)(=O)=O)cc2)C1=O` 54.2

Need Ki, item `NS(=O)(=O)c1ccc(N2CC(=O)NC2=O)cc1` 29.5

Need Ki, item `N#Cc1ccc(CN2C(=O)CN(c3ccc(S(N)(=O)=O)cc3)C2=O)cc1` 38.4

Need Ki, item `NS(=O)(=O)c1ccc(N2CC(=O)N(Cc3ccc([N+](=O)[O-])cc3)C2=O)cc1` 6.6

====

Target: CgNce103 (Nakaseomyces glabratus)
Construct: gene NCE103; recombinant, obtained in-house; beta-CA
Sequence (Q6FTL6 1-219): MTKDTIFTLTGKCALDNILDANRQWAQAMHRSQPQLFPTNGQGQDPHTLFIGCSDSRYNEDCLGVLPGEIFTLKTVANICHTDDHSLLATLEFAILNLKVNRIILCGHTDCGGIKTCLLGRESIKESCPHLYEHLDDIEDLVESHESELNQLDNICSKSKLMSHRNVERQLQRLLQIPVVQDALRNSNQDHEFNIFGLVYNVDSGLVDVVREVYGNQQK
Assay: stopped-flow CO2 hydrase assay
Type: biochemical
Details: read-out: KI (nM) ^a / CgNce103 (β-CA)
Under this convention, rule met denotes Ki strictly below 40 nM and rule not met denotes Ki at or above 40 nM.

Examples from the recorded data:
                                item_smiles  answer_label
0  CCCCCCCN1C(=O)CN(c2ccc(S(N)(=O)=O)cc2)C1=O  rule not met
1  Cc1cccc(CN2C(=O)CN(c3ccc(S(N)(=O)=O)cc3)C2=O)c1      rule met
2  NS(=O)(=O)c1ccc(N2CC(=O)N(Cc3ccc(C(F)(F)F)cc3)C2=O)cc1      rule met
3  NS(=O)(=O)c1ccc(N2CC(=O)N(Cc3c(F)c(F)c(F)c(F)c3F)C2=O)cc1      rule met

Moving on to the next compound.
Field: below-cutoff. Rule: recorded Ki strictly less than 40 nM. Subject: `CCN1C(=O)CN(c2ccc(S(N)(=O)=O)cc2)C1=O` rule not met
